# measured target: Human plasma kallikrein (Homo sapiens (Human))
# procedure summary: Kallikrein Assay
# experimental setup: purified Human plasma kallikrein 0.5 nM, substrate Acetyl-K-P-R-AFC; read-out: P. KLK IC50
pIC50: −log10 of the molar value.
reported endpoint: pIC50

I = O=C(O)c1ccc(NC(=O)C(CC23CC(C2)C3)c2ccc(-c3c(C(F)F)ccc(Cl)c3F)c[n+]2[O-])cc1F (single isomer, unassigned)
II = O=C(O)c1ccc(NC(=O)C(CC2CC2(F)F)c2ccc(-c3c(C(F)F)ccc(Cl)c3F)c[n+]2[O-])cc1 (single isomer, unassigned) [Example 77]
III = O=C(O)c1ccc(NC(=O)C(CC2CC2)c2ccc(-c3cc(Cl)ccc3C(F)(F)F)c[n+]2[O-])cc1 (single isomer, unassigned)
IV = Cc1cc(NC(=O)C(CC2CC2)c2ccc(-c3c(C(F)F)ccc(Cl)c3F)c[n+]2[O-])ccc1C(=O)O (single isomer, unassigned)
V = CC1C(C)C1CC(C(=O)Nc1ccc(C(=O)O)cc1)c1ccc(-c2c(OC(F)F)ccc(Cl)c2F)c[n+]1[O-] (single isomer, unassigned) [Example 98]
Please produce an ascending ranking of these compounds based on pIC50. Returns: the labels listed in the requested order. III, IV, II, V, I

---

# measured target: human Factor XIa (Homo sapiens (Human))
# Sequence (P03951 388-625): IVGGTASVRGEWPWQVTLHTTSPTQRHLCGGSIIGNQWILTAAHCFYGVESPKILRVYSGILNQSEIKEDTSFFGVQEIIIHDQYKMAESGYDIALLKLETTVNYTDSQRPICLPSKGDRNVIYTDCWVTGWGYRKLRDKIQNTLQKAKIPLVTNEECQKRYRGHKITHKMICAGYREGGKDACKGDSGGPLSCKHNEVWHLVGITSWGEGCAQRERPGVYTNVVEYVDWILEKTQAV
# Sequence (P03951 19-387 partner): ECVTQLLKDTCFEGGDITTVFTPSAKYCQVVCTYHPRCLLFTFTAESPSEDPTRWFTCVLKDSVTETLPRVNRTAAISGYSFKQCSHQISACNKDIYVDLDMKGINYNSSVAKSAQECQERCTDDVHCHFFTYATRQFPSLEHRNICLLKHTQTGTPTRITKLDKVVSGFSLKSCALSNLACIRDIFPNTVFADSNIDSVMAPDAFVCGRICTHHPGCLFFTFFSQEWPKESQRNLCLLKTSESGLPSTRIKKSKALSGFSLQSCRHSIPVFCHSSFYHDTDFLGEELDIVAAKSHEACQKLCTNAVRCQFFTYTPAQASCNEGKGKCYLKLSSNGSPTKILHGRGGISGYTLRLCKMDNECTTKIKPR
# procedure summary: Factor XIa Assay
# Type: biochemical
# experimental setup: @ 1000 nM compound; read-out: FXIa % Inh. @ 1000 nM
reported endpoint: inhibition at 1 µM (%)

P = O=C(O)c1ccc(NC(=O)C(CC2CC(F)C2)c2ccc(-c3c(OC(F)F)ccc(Cl)c3F)c[n+]2[O-])cc1 (single isomer, unassigned)
Q = O=C(O)c1ccc(NC(=O)C(CC2CC2C(F)(F)F)c2ccc(-c3c(OC(F)F)ccc(Cl)c3F)c[n+]2[O-])cc1 (single isomer, unassigned)
I'd appreciate it if you could identify which of P and Q has the greater inhibition at 1 µM. # answer = label of selected item P
(P: 44%, Q: 29%)

---

# measured target: Human plasma kallikrein (Homo sapiens (Human), UniProt P03952)
# Sequence (P03952 391-638): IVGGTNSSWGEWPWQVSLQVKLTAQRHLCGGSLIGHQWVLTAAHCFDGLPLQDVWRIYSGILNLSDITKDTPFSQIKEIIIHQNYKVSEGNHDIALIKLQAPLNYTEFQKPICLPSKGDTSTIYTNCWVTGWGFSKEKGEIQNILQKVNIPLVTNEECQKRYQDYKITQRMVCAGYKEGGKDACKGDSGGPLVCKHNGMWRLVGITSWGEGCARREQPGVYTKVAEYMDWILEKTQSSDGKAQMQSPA
# Sequence (P03952 20-390 partner): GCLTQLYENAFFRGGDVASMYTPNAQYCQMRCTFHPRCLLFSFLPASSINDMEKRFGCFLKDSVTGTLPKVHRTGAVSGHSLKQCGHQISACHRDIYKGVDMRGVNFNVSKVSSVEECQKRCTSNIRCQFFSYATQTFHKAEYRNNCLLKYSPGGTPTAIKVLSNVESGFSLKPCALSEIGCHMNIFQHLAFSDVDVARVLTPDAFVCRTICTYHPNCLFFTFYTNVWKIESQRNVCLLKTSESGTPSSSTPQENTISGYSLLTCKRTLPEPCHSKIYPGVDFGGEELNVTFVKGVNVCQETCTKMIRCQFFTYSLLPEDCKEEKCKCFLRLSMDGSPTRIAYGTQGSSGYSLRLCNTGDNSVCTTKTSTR
# procedure summary: Kallikrein Assay
# experimental setup: purified Human plasma kallikrein 0.5 nM, substrate Acetyl-K-P-R-AFC; read-out: P. KLK IC50
pIC50: −log10 of the molar value.
reported endpoint: pIC50

O=C(O)c1ccc(NC(=O)[C@H](CC2CC2)c2ccc(-c3c(C(F)F)ccc(Cl)c3F)c[n+]2[O-])cc1 (mixture of isomers)
7.66

P = C[C@]1(O)CC[C@@H](CC(C(=O)Nc2ccc(C(=O)O)cc2)c2ccc(-c3c(OC(F)F)ccc(Cl)c3F)c[n+]2[O-])CC1 (single isomer, unassigned)
Q = CC1CC1C[C@@H](C(=O)Nc1ccc(C(=O)O)cc1)c1ccc(-c2c(C(F)F)ccc(Cl)c2F)c[n+]1[O-] (single isomer, unassigned) [Example 63]
R = O=C(O)c1ccc(NC(=O)C(CC2CC2C(F)F)c2ccc(-c3c(C(F)F)ccc(Cl)c3F)c[n+]2[O-])cc1 (single isomer, unassigned) [Example 89]
S = O=C1CCC(CC(C(=O)Nc2ccc(C(=O)O)cc2)c2ccc(-c3c(OC(F)F)ccc(Cl)c3F)c[n+]2[O-])CC1 (single isomer, unassigned)
Hey, quick one: sort these by pIC50, top value first please. Returns: the labels listed in the requested order. Q, R, P, S
